Values from ChEMBL document CHEMBL1128519

Test system: Candida albicans
Protocol notes: In vivo antifungal activity administered orally against Candida albicans infections in mice.
Type: functional
Measurement conditions: po
Numbered stars: 1 amine (or outer) side, 2 acyl side, 3 side chain; on linkers, the order of the positions; unused ones are H or OH. Bridge positions count the residues as written; N and C are the ends. Square brackets hold non-standard residues; d marks the D form. Peptide text beside a SMILES is read from it. * marks the point of attachment. Orn(4R-OH,5R-OH) = O=C([C@H](C[C@@H](O)[C@@H](O)N[*:3])N[*:1])[*:2]; Benzoyl(4-(biphenyl-4-yl)) = O=C(c1ccc(-c2ccc(-c3ccccc3)cc2)cc1)*; hTyr(3S-OH,4S-OH) = N[C@H](C(=O)O)[C@H](O)[C@@H](O)c1ccc(O)cc1; X4 = CC(C)(C)OCCOc1ccc(-c2ccc(-c3ccc(C(=O)*)cc3)cc2)cc1; Pro(3S-OH,4S-Me) = C[C@H]1CN[C@H](C(=O)O)[C@H]1O; Hyp = O=C(O)[C@@H]1C[C@@H](O)CN1
Each entry below lists one item and its recorded ED50 value.

{"columns": ["Compound", "Unit annotation", "Sign", "ED50"],
 "data": [
  ["C[C@@H](O)[C@@H]1NC(=O)[C@H]([C@H](O)[C@@H](O)c2ccc(O)cc2)NC(=O)[C@@H]2C[C@@H](O)CN2C(=O)[C@H]([C@@H](C)O)NC(=O)[C@@H](NC(=O)c2ccc(-c3ccc(-c4ccc(OCCOC(C)(C)C)cc4)cc3)cc2)C[C@@H](O)[C@@H](O)NC(=O)[C@@H]2[C@@H](O)[C@@H](C)CN2C1=O (X4-[Orn(4R-OH,5R-OH)]T[Hyp][hTyr(3S-OH,4S-OH)]T[Pro(3S-OH,4S-Me)]; lactam 1-C)", "mg/kg", "=", 21.3],
  ["C[C@@H](O)[C@@H]1NC(=O)[C@H]([C@H](O)[C@@H](O)c2ccc(O)cc2)NC(=O)[C@@H]2C[C@@H](O)CN2C(=O)[C@H]([C@@H](C)O)NC(=O)[C@@H](NC(=O)c2ccc(-c3ccc(-c4ccccc4)cc3)cc2)C[C@@H](O)[C@@H](O)NC(=O)[C@@H]2[C@@H](O)[C@@H](C)CN2C1=O ({Benzoyl(4-(biphenyl-4-yl))}-[Orn(4R-OH,5R-OH)]T[Hyp][hTyr(3S-OH,4S-OH)]T[Pro(3S-OH,4S-Me)]; lactam 1-C)", "mg/kg", ">", 50]
]}
